Assay: reversal of MRP1-mediated doxorubicin resistance, pilot screen, H69AR cells, doxorubicin co-treatment (AID 601)
Conditions: H69AR cells + 2 uM doxorubicin, CellTiter-Glo, 72 h; measured here: viability with 2 uM doxorubicin; at 10 µM; stronger effect = lower value
Readout: viability
Quick note: unit goes after the number.

[
  {
    "Molecule": "Cc1cc(NC(=O)Cc2cn3ccsc3n2)n(-c2ccccc2)n1",
    "Reported result": "89.9%"
  },
  {
    "Molecule": "Cc1ccc(CSC2=NCCN2C(=O)c2ccco2)cc1",
    "Reported result": "81.5%"
  },
  {
    "Molecule": "O=C(CSc1nnc(-c2ccccc2)c(-c2ccccc2)n1)N1CCOCC1",
    "Reported result": "72.5%"
  },
  {
    "Molecule": "CCCS(=O)(=O)N1CCC(C(=O)N2CCCC2)CC1",
    "Reported result": "91.1%"
  },
  {
    "Molecule": "COc1cc2c(cc1OC)-c1cc(Nc3ccc4c(c3)OCCO4)nc(=O)n1CC2",
    "Reported result": "78.1%"
  }
]

Query: State the recorded viability for this entry: Cc1[nH]c2ccccc2c(=O)c1CN(C)Cc1ccccc1
Reply: 89.3%

Query: State the recorded viability for this entry: O=C(NCC(=O)N(c1ccc2c(c1)OCCO2)C(C(=O)NC1CCCC1)c1ccco1)c1ccco1 (stereo not drawn)
Reply: 78.7%

---

Item-by-item account of inhibition
Test: 384-well plate pilot, post-Golgi transport modulator project, inhibition of yeast transport mutant growth (AID 636)
Conditions: absorbance 615 nm, about 18 h, stronger effect = higher value
Dear colleague, please return just the value in %, with no unit written.

For orientation, consider the following solved cases.
[
  {
    "Compound": "CCOC(=O)C1CCN(C(=O)c2ccc(Cl)c(Cl)c2)CC1",
    "inhibition [%]": 3.65
  },
  {
    "Compound": "O=S1(=O)CC(N2CCOCC2)c2ccccc21 (stereo unspecified)",
    "inhibition [%]": 0.27
  },
  {
    "Compound": "CCS(=O)(=O)Nc1ccc(C(=O)CC2(O)C(=O)Nc3ccccc32)cc1 (stereo unspecified)",
    "inhibition [%]": -5.87
  },
  {
    "Compound": "COc1ccc(-c2cc(C(=O)N3CCN(Cc4ccccc4)CC3)no2)cc1OC",
    "inhibition [%]": -5.68
  },
  {
    "Compound": "C=CCOc1nc2c(c(=O)n(C)c(=O)n2C)n1Cc1c(Cl)cccc1Cl",
    "inhibition [%]": -3.92
  }
]

Please examine the following record next.
Query: State the recorded inhibition for this entry: CCCCNC(=O)CN(C1CCCCC1)S(C)(=O)=O
Reply: -4.47

---

Experiment: reversal of MRP1-mediated doxorubicin resistance, pilot screen, H69AR cells, doxorubicin co-treatment (AID 601)
Conditions: H69AR cells + 2 uM doxorubicin, CellTiter-Glo, 72 h; measured here: viability with 2 uM doxorubicin; at 10 µM; stronger effect = lower value
Consider the cut-off 90%. If the recorded viability is strictly smaller, the label is Satisfied; if not, the label is Not satisfied.

Previously resolved entries follow.
[
  {
    "Smiles": "O=c1c2ccccc2nc(SCc2cccc(F)c2)n1Cc1ccco1",
    "Label class": "Satisfied"
  },
  {
    "Smiles": "CCN(CC)CCNC(=O)c1cc(S(C)(=O)=O)ccc1OC",
    "Label class": "Not satisfied"
  },
  {
    "Smiles": "CC(=O)OCC(=O)[C@@]12OC3(CCCC3)O[C@@H]1C[C@H]1[C@@H]3CCC4=CC(=O)C=C[C@]4(C)[C@@]3(F)[C@@H](O)C[C@@]12C",
    "Label class": "Satisfied"
  }
]

Here is another compound to look at.
Query: Hello, I'm reviewing records and need to know if viability of CC1CCN(C(=O)CSc2nnc(-c3ccc(S(=O)(=O)N4CCOCC4)cc3)n2C)CC1 is below 90%. Could you check?
Reply: Not satisfied

---

Assay: HUVEC growth inhibition – cell-based, human, primary screen (AID 575);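 further: 100% = median of untreated cell wells with 0.1% DMSO on each plate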
Conditions: HUVEC proliferation, CellTiter-Glo luminescence, 72 h; at 10 µM
Activity calls are given as the source filed them.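 Rule for the calls: active = viability at or below 30% in both replicate assays; inconclusive = viability at or below 30% in just one of the two assays; inactive = the rest.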
Return exactly one item of active, inactive

Previously resolved entries follow.
[
  {
    "Molecule": "COC(=O)c1ccc(CSc2nc3c(cnn3-c3ccc(C)c(C)c3)c(=O)[nH]2)o1",
    "Label class": "active"
  },
  {
    "Molecule": "CC(C)C(=O)Nc1cccc(NC(=O)c2cccnc2)c1",
    "Label class": "inactive"
  },
  {
    "Molecule": "N#Cc1c(/N=C/c2ccco2)sc2c1CCC2",
    "Label class": "inactive"
  },
  {
    "Molecule": "CC1CCCC(C)N1C(=O)COC(=O)c1ccc[nH]c1=O (stereo unspecified)",
    "Label class": "inactive"
  },
  {
    "Molecule": "COc1ccc(-n2nnnc2-c2cccc(OC)c2)cc1",
    "Label class": "inactive"
  }
]

Query: Identify the outcome logged in this assay for the molecule shown: Cc1cccc(-c2nc(CN3CCCC(C(=O)NC4CCCC4)C3)c(C)o2)c1 (stereo unspecified)
Reply: inactive

Query: Identify the outcome logged in this assay for the molecule shown: CN(C)c1ccc(CNn2cnnc2)cc1
Reply: inactive

Query: Identify the outcome logged in this assay for the molecule shown: O=C(Nc1ccc(N2CCCCC2)cc1)c1ccc(F)cc1
Reply: inactive

---

Assay: OD615 S. cerevisiae growth inhibition, permissive medium, pilot counter-assay, permissive growth control for S. cerevisiae lifespan shortening project (AID 705)
Conditions: OD615, 24 h, at 10 µM, stronger effect = higher value
Active and inactive are the calls of the source.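 The calls were made as follows: active = growth inhibition above 25% in both replicates, a cutoff set 3 SD above the mean; inconclusive = above 25% in only one replicate; inactive = the rest.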
Readout: growth inhibition

[
  {
    "Compound": "CCCCCn1c(NC2CCCCC2)nc2c1c(=O)[nH]c(=O)n2C",
    "Readout": "growth inhibition",
    "Reported result": "-15.8% (inactive)"
  },
  {
    "Compound": "CCCCNC(=O)Nc1cc(C(=O)OC)ccc1C",
    "Readout": "growth inhibition",
    "Reported result": "-6.38% (inactive)"
  },
  {
    "Compound": "CCOc1ccc(Oc2nc(NCC(C)C)nc(OC)n2)nn1",
    "Readout": "growth inhibition",
    "Reported result": "-8.33% (inactive)"
  },
  {
    "Compound": "COc1ccc(C2CC(c3ccc(Cl)cc3)n3nc(N)nc3N2)cc1 (configuration not stated)",
    "Readout": "growth inhibition",
    "Reported result": "-5.72% (inactive)"
  },
  {
    "Compound": "CCN(c1ccccc1)c1cc(C)nc2nc(C)nn12",
    "Readout": "growth inhibition",
    "Reported result": "-17% (inactive)"
  },
  {
    "Compound": "Cc1cc(NC(=O)CSc2nnc(C)c(=O)[nH]2)no1",
    "Readout": "growth inhibition",
    "Reported result": "-0.975% (inactive)"
  },
  {
    "Compound": "c1cncc(-c2noc(-c3ccco3)n2)c1",
    "Readout": "growth inhibition",
    "Reported result": "-5.2% (inactive)"
  },
  {
    "Compound": "CCSc1nnc(NC(=O)C(C)C)s1",
    "Readout": "growth inhibition",
    "Reported result": "3.02% (inactive)"
  }
]

Query: State the recorded growth inhibition for this entry: COc1ccccc1-c1cc(C(F)(F)F)nc(N2CCN(c3ccccc3)CC2)n1
Reply: -2.88% (inactive)

Query: State the recorded growth inhibition for this entry: CCC(=O)Nc1cccc(NC(=O)c2cc3ccccc3o2)c1
Reply: -10.9% (inactive)

Query: State the recorded growth inhibition for this entry: Cc1ccc(N=C2SCCCN2C(=O)c2ccco2)cc1Cl
Reply: -10.1% (inactive)

Query: State the recorded growth inhibition for this entry: CCCCOc1ccc(/C(N)=N/O)cc1
Reply: 7.3% (inactive)

---

Item-by-item account of viability
Assay: HUVEC growth inhibition – cell-based, human, primary screen (AID 575);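 further: 100% = median of untreated cell wells with 0.1% DMSO on each plate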
Conditions: HUVEC proliferation, CellTiter-Glo luminescence, 72 h; at 10 µM; stronger effect = lower value
Dear colleague, please return just the value in %, with no unit written.

[
  {
    "Compound": "C[C@]12C=CC(=O)C=C1CC[C@H]1[C@@H]3C[C@@H](O)[C@](O)(C(=O)CO)[C@@]3(C)C[C@H](O)[C@@]12F",
    "Unit text": "%",
    "viability": 101
  },
  {
    "Compound": "CCOC(=O)c1oc2ccccc2c1CSc1nnnn1-c1ccc(OC)cc1",
    "Unit text": "%",
    "viability": 77.4
  }
]

Query: State the recorded viability for this entry: CCOc1cccc(C(=O)N(Cc2ccc(F)cc2)C2CCS(=O)(=O)C2)c1 (configuration not stated)
Reply: 100

Query: State the recorded viability for this entry: CC(NC(=O)Nc1ccccc1)C(c1cccs1)N1CCOCC1 (configuration not stated)
Reply: 99.5

Query: State the recorded viability for this entry: CC(=O)Nc1sc2c(c1CN1CCN(c3ccccn3)CC1)CCCC2
Reply: 96

Query: State the recorded viability for this entry: N/C(=N/O)c1nc(N2CCCC2)nc(N(c2ccccc2)c2ccccc2)n1
Reply: 75.9
